Hey, just so you know, these numbers are from patent US8048862B2.

Tested on: hepatitis C replicon
Protocol Details: hepatitis C replicon EC50
Assay type: cell-based
Experimental Setup: Hepatitis C virus; Table 3; hepatitis C replicon; read-out: EC50
pEC50: −log10 of the molar value.
Measured Property: pEC50

Supply recorded pEC50 for `CC1(S(=O)(=O)NC(=O)[C@@]23C[C@H]2/C=C\CCCCC[C@H](Nc2cccc(C#N)c2)C(=O)N2C[C@H](OC(=O)N4Cc5cccc(F)c5C4)C[C@H]2C(=O)N3)CC1` here. 7.00 to 8.00

Supply recorded pEC50 for `CC(C)(C)OC(=O)N[C@H]1CCCCC/C=C\[C@@H]2C[C@@]2(C(=O)NS(=O)(=O)C2(C)CC2)NC(=O)[C@@H]2C[C@@H](Oc3nc4ccccc4n3COCC[Si](C)(C)C)CN2C1=O` here. 7.00 to 8.00

Supply recorded pEC50 for `CN(C)S(=O)(=O)NC(=O)[C@@]12C[C@H]1/C=C\CCCCC[C@H](NC(=O)OC(C)(C)C)C(=O)N1C[C@H](Oc3nc4ccccc4[nH]3)C[C@H]1C(=O)N2` here. < 7.00

Supply recorded pEC50 for `COc1ccc2c(O[C@@H]3C[C@H]4C(=O)N[C@]5(C(=O)NS(=O)(=O)C6CC6)C[C@H]5/C=C\CCCCC[C@H](NC(=O)OC(C)(C)C)C(=O)N4C3)cc(-c3ccccc3)nc2c1` here. > 8.00

Supply recorded pEC50 for `CC(C)(C)OC(=O)N[C@H]1CCCCC/C=C\[C@@H]2C[C@@]2(C(=O)NS(=O)(=O)Cc2ccccc2)NC(=O)[C@@H]2C[C@@H](OC(=O)N3Cc4cccc(F)c4C3)CN2C1=O` here. < 7.00
